METHOD: LNP Characteristics (size, PDI, encapsulation efficiency) of LNPs formulated with novel ionizable lipids
Type: physicochemical
CONDITION_PARAMETERS: LNP formulated with the ionizable lipid, DOPE, Cholesterol, DMG-PEG2000
Protocol: LNPs formulated using the novel ionizable lipids of the disclosure or control ionizable lipids MC3 and SM-102 were synthesized by mixing the lipid components of the LNP in ethanol at a predetermined molar ratio (ionizable lipid/DOPE/Cholesterol/DMG-PEG2000=30/15/50/1.5) to prepare an organic phase. Sa-mRNA encoding firefly luciferase (LUC) or green fluorescent protein (GFP) was diluted in 50 mM citrate buffer (pH 4.5, Fisher) to prepare an aqueous phase. […]
MEASUREMENT_KIND: Avg. Encapsulation Efficiency (EE) %

Please review the entries below; each comes with its answer.
{"COMPOUND": "CCCCCCCCCCCCCC(=O)N(CC(CCCCCCCC)CCCCCCCCCC)C(C(=O)NCC(=O)OCC)C1CCN(CC)CC1 (stereo not shown)", "Avg. Encapsulation Efficiency (EE) %": "92.7%"}
{"COMPOUND": "CCCCCCCCCCCCC(CCCCCCCCCC)CN(C(=O)CCCCCCCCC)C(C(=O)NC(C)(C)C)C1CCN(CC)CC1 (stereo not shown)", "Avg. Encapsulation Efficiency (EE) %": "98.3%"}
{"COMPOUND": "CCCCCCCCCCC(=O)N(CC(CCCCCCCC)CCCCCCCCCC)C(CC1CCN(C)CC1)C(=O)NC1CCCCCC1 (stereo not shown)", "Avg. Encapsulation Efficiency (EE) %": "95.8%"}

Next:
Report measured Avg. Encapsulation Efficiency (EE) %; entry is CCCCCCCCCCCCCCCC(=O)N(C(CCCCCCC)CCCCCCC)C(C(=O)NC1CCCCC1)C1CCN(CC)CC1 (stereo not shown) 97.8%

----------
METHOD: LNP Characteristics (size, PDI, encapsulation efficiency) of LNPs formulated with novel ionizable lipids
Type: physicochemical
CONDITION_PARAMETERS: LNP formulated with the ionizable lipid, DOPE, Cholesterol, DMG-PEG2000
MEASUREMENT_KIND: Avg. Size
# output: numeric value plus its unit

Please review the entries below; each comes with its answer.
{"COMPOUND": "CCCCCCCCCCCCCCCCC(=O)N(C(CCCCCCC)CCCCCCC)C(C(=O)NC12CC3CC(CC(C3)C1)C2)C1CCN(CC)CC1 (stereo not shown)", "Avg. Size": "173.2 nm"}
{"COMPOUND": "CCCCCCCCCCC(CCCCCCCC)CN(C(=O)CCC(C)C1CCC2C3CC(O)C4CC(O)CCC4(C)C3CCC12C)C(CC1CCN(C)CC1)C(=O)NC12CC3CC(CC(C3)C1)C2 (stereo not shown)", "Avg. Size": "225 nm"}
{"COMPOUND": "CCCCCCCCCCCCOC(=O)CCC(=O)N(C(CCCCCCC)CCCCCCC)C(C(=O)NC1CCCCCC1)C1CCN(CC)CC1 (stereo not shown)", "Avg. Size": "148 nm"}

Next:
Report measured Avg. Size; entry is CCCCCCCCCCCCOC(=O)CCC(=O)N(CC(CCCCCCCC)CCCCCCCCCC)C(C(=O)NC1CCCCCC1)C1CCCN(CC)C1 (stereo not shown) 174 nm

----------
METHOD: LNP Characteristics (size, PDI, encapsulation efficiency) of LNPs formulated with novel ionizable lipids
Format: physicochemical
CONDITION_PARAMETERS: LNP formulated with the ionizable lipid, DOPE, Cholesterol, DMG-PEG2000
MEASUREMENT_KIND: Avg. Encapsulation Efficiency (EE) % (%)
One number for each entry, in %.

For every item below, please supply its Avg. Encapsulation Efficiency (EE) %.
1. CCCCCCCCCCCCCCC(=O)N(C(CCCCCCC)CCCCCCC)C(CC1CCN(C)CC1)C(=O)NC1CCCCCC1 (stereo not shown)
2. CCCCCC/C=C\CCCCCCCC(=O)N(C(CCCCCCCC)CCCCCCCC)C(C(=O)NC1CCCCCC1)C1CCN(CC)CC1 (stereo not shown)
3. CCCCCCCCCCCCC(=O)N(CC(CCCCCCCCCC)CCCCCCCCCCCC)C(CC1CCN(C)CC1)C(=O)NC(C)(C)C (stereo not shown)
4. CCCCCCCCCCCCCCCC(=O)N(C(CCCCCCC)CCCCCCC)C(C(=O)NC12CC3CC(CC(C3)C1)C2)C1CCN(CC)CC1 (stereo not shown)
5. CCCCCCCC/C=C\CCCCCCCC(=O)N(C(CCCCCCC)CCCCCCC)C(C(=O)NC1CCCCCC1)C1CCN(CC)CC1 (stereo not shown)
6. CCCCCCCCCCCCCC(=O)N(C(CCCCCCC)CCCCCCC)C(C(=O)NC1CCCCCC1)C1CCN(CC)CC1 (stereo not shown)
7. CCCCCCCCCCCCCC(=O)N(CC(CCCCCCCC)CCCCCCCCCC)C(C(=O)NC1CCCCC1)C1CCN(CC)CC1 (stereo not shown)

98.2
90.1
98.1
89.1
92.9
97.4
95.5

For every item below, please supply its Avg. Encapsulation Efficiency (EE) %.
1. CCCCCCCCCCCCOC(=O)CCC(=O)N(C(CCCCCCC)CCCCCCC)C(C(=O)NC1CCCCCC1)C1CCN(CC)CC1 (stereo not shown)
2. CCCCCCCCCN(CCCCCCCCC)CCC(=O)N1CN(C(=O)CCN(CCCCCCCCC)CCCCCCCCC)CN(C(=O)CCN(CCCCCCCCC)CCCCCCCCC)C1 [Lipid E2]
3. CCCCCCCC/C=C\CCCCCCCC(=O)N(C(CCCCCCCC)CCCCCCCC)C(C(=O)NC1CCCCCC1)C1CCN(CC)CC1 (stereo not shown)
4. CCCCCCCCCCCCCCCCCC(=O)N(C(CCCCCCC)CCCCCCC)C(CC1CCN(C)CC1)C(=O)NC1CCCCC1 (stereo not shown)
5. CCCCCCCCCCCCC(CCCCCCCCCC)CN(C(=O)CCCCCCCCCC)C(C(=O)NC12CC3CC(CC(C3)C1)C2)C1CCN(CC)CC1 (stereo not shown)
6. CCCCCCCCCCCCOC(=O)CCC(=O)N(CC(CCCCCCCC)CCCCCCCCCC)C(C(=O)NC1CCCCCC1)C1CCCN(CC)C1 (stereo not shown)

1. 90.1
2. 95.1
3. 92.0
4. 93.9
5. 93.4
6. 95.8

----------
METHOD: LNP Characteristics (size, PDI, encapsulation efficiency) of LNPs formulated with novel ionizable lipids
Type: physicochemical
CONDITION_PARAMETERS: LNP formulated with the ionizable lipid, DOPE, Cholesterol, DMG-PEG2000
Everything with Avg. Size lower than 200 nm is No; everything else, including exactly 200 nm, is Yes.

// known answers, use as guide
{"MOLECULE": "CCCCCCCC/C=C\\CCCCCCCC(=O)N(C(CCCCCCCC)CCCCCCCC)C(C(=O)NC1CCCCCC1)C1CCN(CC)CC1 (stereo not drawn)", "CLASS_ASSIGNMENT": "Yes"}
{"MOLECULE": "CCCCCCCC/C=C\\CCCCCCCC(=O)N(C(CCCCCCC)CCCCCCC)C(C(=O)NC1CCCCCC1)C1CCN(CC)CC1 (stereo not drawn)", "CLASS_ASSIGNMENT": "Yes"}
{"MOLECULE": "CCCCCCCCCCCCCCCC(=O)N(C(CCCCCCCC)CCCCCCCC)C(C(=O)NC12CC3CC(CC(C3)C1)C2)C1CCN(CC)CC1 (stereo not drawn)", "CLASS_ASSIGNMENT": "No"}
{"MOLECULE": "CCCCCCCCCCCCC(=O)N(CC(CCCCCCCCCC)CCCCCCCCCCCC)C(CC1CCN(C)CC1)C(=O)NC(C)(C)C (stereo not drawn)", "CLASS_ASSIGNMENT": "No"}
{"MOLECULE": "CCCCCCCCCCCCC(CCCCCCCCCC)CN(C(=O)CCCCCCCCCC)C(C(=O)NC12CC3CC(CC(C3)C1)C2)C1CCN(CC)CC1 (stereo not drawn)", "CLASS_ASSIGNMENT": "No"}

In plain terms: is recorded Avg. Size at least 200 nm for CCCCCCCCCCCCCC(=O)N(CC(CCCCCCCC)CCCCCCCCCC)C(C(=O)NC1CCCCC1)C1CCN(CC)CC1 (stereo not drawn) ? No

----------
METHOD: LNP Characteristics (size, PDI, encapsulation efficiency) of LNPs formulated with novel ionizable lipids
Type: physicochemical
CONDITION_PARAMETERS: LNP formulated with the ionizable lipid, DOPE, Cholesterol, DMG-PEG2000
Protocol: LNPs formulated using the novel ionizable lipids of the disclosure or control ionizable lipids MC3 and SM-102 were synthesized by mixing the lipid components of the LNP in ethanol at a predetermined molar ratio (ionizable lipid/DOPE/Cholesterol/DMG-PEG2000=30/15/50/1.5) to prepare an organic phase. Sa-mRNA encoding firefly luciferase (LUC) or green fluorescent protein (GFP) was diluted in 50 mM citrate buffer (pH 4.5, Fisher) to prepare an aqueous phase. […]
I'd be grateful if you could share measured Avg. Size for these entries.
Numbers only, in nm.

Please review the entries below; each comes with its answer.
{"COMPOUND": "CCCCCCCCCCCCOC(=O)CCC(=O)N(C(CCCCCCCCCCC)CCCCCCCCCCC)C(C(=O)NC1CCCCCC1)C1CCN(CC)CC1 (stereo not shown) [Lipid P153C5]", "Avg. Size, nm": 169}
{"COMPOUND": "CCCCCC/C=C\\CCCCCCCC(=O)N(C(CCCCCCCC)CCCCCCCC)C(C(=O)NC1CCCCCC1)C1CCN(CC)CC1 (stereo not shown) [Lipid P149C2]", "Avg. Size, nm": 176}
{"COMPOUND": "CCCCCCCCCCCCOC(=O)CCC(=O)N(C(CCCCCCCCC)CCCCCCCCC)C(C(=O)NC1CCCCCC1)C1CCN(CC)CC1 (stereo not shown) [Lipid P153C3]", "Avg. Size, nm": 86.8}
{"COMPOUND": "CCCCCCCCCCCCCC(=O)N(C(CCCCCCC)CCCCCCC)C(CC1CCN(C)CC1)C(=O)NC1CCCCCC1 (stereo not shown) [Lipid P38D7]", "Avg. Size, nm": 236.3}
{"COMPOUND": "CCCCCCCCCCCCCCCC(=O)N(C(CCCCCCC)CCCCCCC)C(C(=O)NC12CC3CC(CC(C3)C1)C2)C1CCN(CC)CC1 (stereo not shown) [Lipid P56A1]", "Avg. Size, nm": 186.3}

For every item below, please supply its Avg. Size.
1. CCCCCCCCCCCC(=O)N(CC(CCCCCCCC)CCCCCCCCCC)C(CC1CCN(C)CC1)C(=O)NC1CCCCCC1 (stereo not shown) [Lipid P40C10]
2. CCCCCCCCCCCCCC(=O)N(CC(CCCCCCCC)CCCCCCCCCC)C(C(=O)NCC(=O)OCC)C1CCN(CC)CC1 (stereo not shown) [Lipid P1D4]
3. CCCCCCCCCCCC(=O)N(C(CCCCCCCCCCC)CCCCCCCCCCC)C(CC1CCN(C)CC1)C(=O)NC1CCCCCC1 (stereo not shown) [Lipid P40C11]
4. CCCCCCCCCCCCC(CCCCCCCCCC)CN(C(=O)CCCCCCCCC)C(C(=O)NC(C)(C)C)C1CCN(CC)CC1 (stereo not shown) [Lipid P53A6]

192.9
170.4
189.3
175.6
